Recorded values, source patent US10562912B2.

# Tested on: LNCaP
# MEASUREMENT PROTOCOL: Cell growth inhibition assay, prostate cancer cell line LNCaP (medium with 10 ng/mL IL-6)
# Assay type: cell-based
# CONDITION: Homo sapiens, medium supplemented with 10 ng/mL of IL-6, 10,000 cells/well
MEASUREMENT LABEL: IC50 (µM)
The figure you give is taken to be in µM; do not add the unit.

Requested read-out: IC50. Entry: `CN(c1ccc2cc(C(=O)Nc3cccc(-c4ccccc4C(F)(F)F)c3)n(C)c2c1)S(C)(=O)=O`
2.8

Now give it for `CC(C)(c1cccc(C#N)c1)c1cccc(NC(=O)c2cc3cc(NS(C)(=O)=O)ccc3s2)c1` too.
0.27

Next entry: `CCOc1cc(OC(F)(F)F)cc(C(C)(C)c2cc(Br)cc(NC(=O)c3cc4nc(NS(C)(=O)=O)ccc4s3)c2)c1`
0.37

Also, `CC(C)Oc1cc(OC(F)(F)F)cc(C(C)(C)c2cc(Cl)cc(NC(=O)c3cc4cc(NS(=O)(=O)CC5CCOCC5)ccc4s3)c2)c1` please.
0.046
